Reported melting point values follow for various molecules

O=C(C=C(O)c1cccnc1)C1CCN(CCc2ccccc2)CC1 = 75 to 77 °C
CCCn1nc2c(N)nc3ccccc3c2c1CCCCN1C(=O)c2ccccc2C1=O = 204 to 206 °C

// query Which melting point is reported for this molecule? CCOc1nn(-c2ccc(C(F)(F)F)cn2)cc1CCCOc1ccc(CCC(=O)O)c(OC)c1
// result 120 to 121 °C

// query Entry CN(C(N)=O)C1Nc2ccc(Cl)cc2Oc2ccccc21 (stereo not drawn) : reported melting point = ?
// result 146 to 149 °C

// query Would you mind telling me what melting point value was observed for C[Si](C)(C)C#Cc1cccc2c1C1(c3ccccc3-c3ccccc31)c1ccccc1-2 ?
// result 205 to 206 °C

// query Report melting point for Cc1ccc(S(=O)(=O)C(CC=Cc2ccc(Cl)cc2)C(=O)O)cc1 (stereo not drawn) please.
// result 162 to 164 °C

// query Value lookup for melting point; key = COc1cc(/C=C/C=C/C(=O)NCCN2CCC(c3c[nH]c4ccccc34)CC2)cc(OC)c1OC(C)=O
// result 169 to 172 °C

// query Reported melting point, molecule N#CCCNC(=O)c1n[nH]cc1NC(=O)c1ccc(C(F)(F)F)cc1 : ____
// result 245 to 246 °C

// query I am curious: what melting point value has been reported for CC(C)(C)c1cc(C=Cc2n[nH]c(=S)o2)cc(C(C)(C)C)c1O ?
// result 210 °C
